Molecular target: CD28 (human) (UniProt P10747)
Experiment: flow cytometry, Jurkat/IL2 reporter cells (CD28)
experimental.readout: MFI at 33.3 nM
Answer as a quantity: numeral, then unit.

Problem: Give me measured MFI at 33.3 nM, please, for this binder: variant CD80 IgV-Fc E35D/M47I/L85Q/D90G (Fc fusion) VIHVTKEVKEVATLSCGHNVSVEELAQTRIYWQKDKKMVLTMMSGDINIWPEYKNRTIFDITNNLSIVILALRPSDEGTYECVVQKYEKGAFKREHLAEVTLSVKAD
Result: 4100 MFI

Problem: Give me measured MFI at 33.3 nM, please, for this binder: variant CD80 IgV-Fc E35D/M47L (Fc fusion) VIHVTKEVKEVATLSCGHNVSVEELAQTRIYWQKDKKMVLTMMSGDLNIWPEYKNRTIFDITNNLSIVILALRPSDEGTYECVVLKYEKDAFKREHLAEVTLSVKAD
Result: 411 MFI

Problem: Give me measured MFI at 33.3 nM, please, for this binder: variant CD80 IgV-Fc E35D/M47V/K89N (Fc fusion) VIHVTKEVKEVATLSCGHNVSVEELAQTRIYWQKDKKMVLTMMSGDVNIWPEYKNRTIFDITNNLSIVILALRPSDEGTYECVVLKYENDAFKREHLAEVTLSVKAD
Result: 507 MFI

Problem: Give me measured MFI at 33.3 nM, please, for this binder: variant CD80 IgV-Fc M47V/V68M (Fc fusion) VIHVTKEVKEVATLSCGHNVSVEELAQTRIYWQKEKKMVLTMMSGDVNIWPEYKNRTIFDITNNLSIMILALRPSDEGTYECVVLKYEKDAFKREHLAEVTLSVKAD
Result: 328 MFI
